Molecular target: GlcNAc(b1-2)[GlcNAc(b1-4)]Man(a1-3)[GlcNAc(b1-4)][GlcNAc(b1-2)[GlcNAc(b1-6)]Man(a1-6)]Man(b1-4)GlcNAc(b1-4)[Fuc(a1-6)]GlcNAc
Experiment: glycan array binding signal (z-score within array); higher = stronger binding
Details: glycan notation: IUPAC condensed, linker removed
This excerpt belongs to a sample that is enriched for the strongest signals.
Measured metric: glycan array binding signal (z-score)
Field format: numeric only.

A selection of reference data follows.
Asked: # glycan array binding signal (z-score) lookup, item HPA (Helix pomatia), Q575S3 (protein) MWAHLTGLLLICALSLSAAQRAQTGEIDCGSDSSWPKDPSDNPNRDNTREIVKHVTFSPQFCREPKVILSVTTLDAEHTKNLRYEARLKSVSPSGLSASCYSWHDGTIYRMKLSWLAVED
Given back: 0.175

Asked: # glycan array binding signal (z-score) lookup, item ArathEULS3 TAP (Arabidopsis thaliana) (protein) IDENLYFQGGSMDEKTTGWRGGHVVEGLAGELEQLRARLEHHPQGQREPGGGGSLEITSLYKKAGFMEHHHQHHRHHQRDDGEDDRQSFGVPPPHVDAPPQPHGLYQSQPHFDPYAPTPQAPAPYRSETQFEPHAPPPYRSEPYFETPAPPPSFGHVSHVGHQSPNESYPPEHHRYGGYQQPSNSLLESHGDHSGVTHVAHHSSNQPQSSSGVYHKPDENRLPDNLAGLAGRATVKVYSKAEPNYNLTIRDGKVILAPADPSDEAQHWYKDEKYSTKVKDADGHPCFALVNKATGEAMKHSVGATHPVHLIRYVPDKLDESVLWTESKDFGDGYRTIRMVNNTRLNVDAYHGDSKSGGVRDGTTIVLWDWNKGDNQLWKIFPF
Given back: -0.659

Asked: # glycan array binding signal (z-score) lookup, item SP15308C-bot-338-23-338 (Bacteroides ovatus) (protein) DEWTDEQFKQLISFKTQPGGWGVTDVHVRYANSAKYTYNLPVLVSGSTDNTDDRLVSFSLRDDTLDILNFEKFGNRPELYFRELPQKYYSFPKELTIPAGQSHALLPIEFSLDGLDDSQKWALPLKVCEDANGTYAVNPRKYYRTAVLRPILFNEFSGRFSGSSLLGTMAGESDIKFSSTEIKLNVVTDSIVFFYAGQRTEDYEDRINYKVFLQFTGDKVDSKKDLYKMKIWAENEKLKFNSYSTPTYKVSSEMDATKTYLKHTYIVISDIDFDFVDYTSVPNYEIEYNMKGGLSVSRDLDTRKPDEDQGSDSKWW
Given back: -0.818

Asked: # glycan array binding signal (z-score) lookup, item FGFR2-Fc (protein) MVNVTDAISSGDDEDDTDGAEDFVSENSNNKRAPYWTNTEKMEKRLHAVPAANTVKFRCPAGGNPMPTMRWLKNGKEFKQEHRIGGYKVRNQHWSLIMESVVPSDKGNYTCVVENEYGSINHTYHLDVVERSPHRPILQAGLPANASTVVGGDVEFVCKVYSDAQPHIQWIKHVEKNGSKYGPDGLPYLKVLKHSGINSSNAEVLALFNVTEADAGEYICKVSNYIGQANQSAWLTVLPKQQAPGREKEITASPDYLETRPLEQKLISEEDLAANDILDYKDDDDKV
Given back: 0.045

Next:
Asked: # glycan array binding signal (z-score) lookup, item CSA (Cytisus scoparius), P29257 (protein) SEELSFSFTKFKTDQKNLILQRDALITPTGKLQLTTVENGKPAAYSLGRALYSTPIHIWDKSTGDEASFATFFSFVISDAPNPSTAATDGLAFFLAPADTQPQSAGGYLGLFEKDSSYNSSNQIVAVEFDTYYNSAWDPQTNPHIGIDVNTIKSKKVSSWGFKNGNVATVLITYQPSSKSLVASLVYPSGQTSDKTSYIISANVDLKATVPEWVRIGFSATTGQTDNYIETHDILSWSFKSKLPATKN
Given back: -0.166

Asked: # glycan array binding signal (z-score) lookup, item ABA (Agaricus bisporus), Q00022 (protein) MTYTISIRVYQTTPKGFFRPVERTNWKYANGGTWDEVRGEYVLTMGGSGTSGSLRFVSSDTDESFVATFGVHNYKRWCDIVTNLTNEQTALVINQEYYGVPIRDQARENQLTSYNVANAKGRRFAIEYTVTEGDNLKANLIIG
Given back: -0.287
